Cited source for all entries: the supplement of paper PMC10065799

# Assay System: Hck (UniProt P08631)
# Sequence (P08631 whole entry, looked up): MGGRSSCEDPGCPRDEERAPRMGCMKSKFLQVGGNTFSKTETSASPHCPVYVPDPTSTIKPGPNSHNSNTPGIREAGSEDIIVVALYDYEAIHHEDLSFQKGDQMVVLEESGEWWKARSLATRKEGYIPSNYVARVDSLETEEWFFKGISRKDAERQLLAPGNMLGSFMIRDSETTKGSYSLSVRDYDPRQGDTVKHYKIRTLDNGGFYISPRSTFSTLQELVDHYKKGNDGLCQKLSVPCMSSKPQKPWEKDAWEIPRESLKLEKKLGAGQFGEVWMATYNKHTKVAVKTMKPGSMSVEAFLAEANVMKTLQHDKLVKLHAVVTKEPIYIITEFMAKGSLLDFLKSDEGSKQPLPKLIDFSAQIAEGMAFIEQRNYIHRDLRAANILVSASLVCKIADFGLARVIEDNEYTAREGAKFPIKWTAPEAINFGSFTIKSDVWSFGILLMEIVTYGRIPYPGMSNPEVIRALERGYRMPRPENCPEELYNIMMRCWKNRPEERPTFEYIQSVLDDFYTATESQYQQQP
# Assay Protocol: phosphorylation enrichment, bacterial display (enrichment ratio); higher = better substrate or ligand; peptides without Tyr show the background;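 note: 11-residue human phosphosite peptides and single-mutation variants displayed on the E. coli surface, counted by deep sequencing, each peptide's frequency after selection divided by its frequency in the unselected input library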;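 note: frequency after pTyr selection over input frequency; kinase dosed for 20-30% of maximal phosphorylation in three min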
Parameter Measured: phosphorylation enrichment

[[record]]
input_sequence = "FDDIAYIRKNL [PIK3CA_Y1021_T1025N]"
parameter_measured = "phosphorylation enrichment"
assay_result = 0.5

[[record]]
input_sequence = "DVSVVCSEVKT [FCRL4_Y493_Y493C]"
parameter_measured = "phosphorylation enrichment"
assay_result = 0.635

[[record]]
input_sequence = "KILGRYYETGS [PAX2_Y72]"
parameter_measured = "phosphorylation enrichment"
assay_result = 0.486

[[record]]
input_sequence = "GREYIYVDPMQ [PDGFRA_Y574_H570R]"
parameter_measured = "phosphorylation enrichment"
assay_result = 2.05

[[record]]
input_sequence = "TSKLNYLDPRI [TOP1_Y723]"
parameter_measured = "phosphorylation enrichment"
assay_result = 0.3

[[record]]
input_sequence = "SAVVPYEPPEV [TP53_Y220_V216A]"
parameter_measured = "phosphorylation enrichment"
assay_result = 0.513

[[record]]
input_sequence = "KIPGRYFETGS [PAX2_Y72_L69P_YF]"
parameter_measured = "phosphorylation enrichment"
assay_result = 0.396

[[record]]
input_sequence = "RDSQLYAVDYE [MRPS34_Y34]"
parameter_measured = "phosphorylation enrichment"
assay_result = 1.41

[[record]]
input_sequence = "FPLAEYTEVKT [ALDH1A3_Y497_A493P_YF]"
parameter_measured = "phosphorylation enrichment"
assay_result = 0.54

[[record]]
input_sequence = "GHNDVYILEHV [GRIN2A_Y1423_S1425L]"
parameter_measured = "phosphorylation enrichment"
assay_result = 1.04

[[record]]
input_sequence = "PFRSIYFSSPK [MPG_Y75_YF]"
parameter_measured = "phosphorylation enrichment"
assay_result = 1.11

[[record]]
input_sequence = "LIHLHYIRRDY [BBS4_Y43_K46R]"
parameter_measured = "phosphorylation enrichment"
assay_result = 0.47

[[record]]
input_sequence = "IRTIDYRYTVS [IDS_Y497_W502S]"
parameter_measured = "phosphorylation enrichment"
assay_result = 0.532

[[record]]
input_sequence = "NKEAIYSGYIR [SMCHD1_Y283]"
parameter_measured = "phosphorylation enrichment"
assay_result = 10.4

[[record]]
input_sequence = "VKMLLYTEVTR [GDI1_Y93]"
parameter_measured = "phosphorylation enrichment"
assay_result = 1.24

[[record]]
input_sequence = "KILTHYKRPHT [KMT2D_Y5349]"
parameter_measured = "phosphorylation enrichment"
assay_result = 0.349

[[record]]
input_sequence = "AVSHRYDLGGL [QPRT_Y162_A158V]"
parameter_measured = "phosphorylation enrichment"
assay_result = 0.415

[[record]]
input_sequence = "ENFDDYMKDVG [FABP4_Y20_E23D]"
parameter_measured = "phosphorylation enrichment"
assay_result = 0.554

[[record]]
input_sequence = "KIVATYRLCSE [DNAH3_Y1586]"
parameter_measured = "phosphorylation enrichment"
assay_result = 0.725

[[record]]
input_sequence = "PELINCHQHNS [BTK_Y361_Y361C]"
parameter_measured = "phosphorylation enrichment"
assay_result = 0.544

[[record]]
input_sequence = "ILGTYYETGSI [PAX2_Y73_R71T]"
parameter_measured = "phosphorylation enrichment"
assay_result = 2.99

[[record]]
input_sequence = "RGKDSYETSQL [SPP1_Y225]"
parameter_measured = "phosphorylation enrichment"
assay_result = 0.412

[[record]]
input_sequence = "VEDHYYEGGIG [TKT_Y564]"
parameter_measured = "phosphorylation enrichment"
assay_result = 0.636

[[record]]
input_sequence = "RSFLSYYTSHV [NEFL_Y442_P440L]"
parameter_measured = "phosphorylation enrichment"
assay_result = 0.421

[[record]]
input_sequence = "SSDKVYAHQMV [MLH1_Y379]"
parameter_measured = "phosphorylation enrichment"
assay_result = 0.458

[[record]]
input_sequence = "MKGDYYRSLAE [YWHAG_Y131_Y133S]"
parameter_measured = "phosphorylation enrichment"
assay_result = 0.427

[[record]]
input_sequence = "ENGPYYASYPP [GDAP2_Y488_T489A]"
parameter_measured = "phosphorylation enrichment"
assay_result = 3.82

[[record]]
input_sequence = "MSRDVYSTDCF [NTRK2_Y702_Y706C_YF]"
parameter_measured = "phosphorylation enrichment"
assay_result = 1.14

[[record]]
input_sequence = "RNDLDYMDSRR [GAA_Y407_W402R]"
parameter_measured = "phosphorylation enrichment"
assay_result = 0.509

[[record]]
input_sequence = "GSPAPYRRRKR [MBD1_Y403_P401A]"
parameter_measured = "phosphorylation enrichment"
assay_result = 0.498

[[record]]
input_sequence = "TVLEPYTDPFF [ZC3H18_Y367_A368T_YF]"
parameter_measured = "phosphorylation enrichment"
assay_result = 0.501

[[record]]
input_sequence = "SVFNNYIQTLG [CTNND1_Y174_S171F]"
parameter_measured = "phosphorylation enrichment"
assay_result = 0.463

[[record]]
input_sequence = "FISLIYTNFEA [GSTP1_Y109_YF]"
parameter_measured = "phosphorylation enrichment"
assay_result = 2.56

[[record]]
input_sequence = "AKIDGYITSYR"
parameter_measured = "phosphorylation enrichment"
assay_result = 0.407

[[record]]
input_sequence = "ELAKFYKLHHI [AK7_Y391_N389K_YF]"
parameter_measured = "phosphorylation enrichment"
assay_result = 0.501

[[record]]
input_sequence = "ARMTNYGLPRF [TSPAN12_Y138_YF]"
parameter_measured = "phosphorylation enrichment"
assay_result = 0.413

[[record]]
input_sequence = "VLDCHYPEDEV [C1QBP_Y188]"
parameter_measured = "phosphorylation enrichment"
assay_result = 0.629

[[record]]
input_sequence = "GEEIKYTLWLS [OTC_Y55_M56T]"
parameter_measured = "phosphorylation enrichment"
assay_result = 0.529

[[record]]
input_sequence = "TMEDSYRKQVV [KRAS_Y40_I36M]"
parameter_measured = "phosphorylation enrichment"
assay_result = 0.425

[[record]]
input_sequence = "QGLRLYRTHLA [BTK_Y617_P619T]"
parameter_measured = "phosphorylation enrichment"
assay_result = 0.317

[[record]]
input_sequence = "ERPIRYLNHQL [CEP152_Y268_Q265P]"
parameter_measured = "phosphorylation enrichment"
assay_result = 0.393

[[record]]
input_sequence = "DEIPLYLKGGV [COX7A2_Y44]"
parameter_measured = "phosphorylation enrichment"
assay_result = 0.522

[[record]]
input_sequence = "KGVDRYNPENL [EIF3K_Y21_I18V]"
parameter_measured = "phosphorylation enrichment"
assay_result = 0.437

[[record]]
input_sequence = "LEIETYPRLLD [KRT12_Y429_R430P]"
parameter_measured = "phosphorylation enrichment"
assay_result = 0.41

[[record]]
input_sequence = "SNNYIYKTLGV [FAM83B_Y639]"
parameter_measured = "phosphorylation enrichment"
assay_result = 0.549

[[record]]
input_sequence = "KRIETYFSKNF [PLP1_Y50_L46R_YF]"
parameter_measured = "phosphorylation enrichment"
assay_result = 0.47

[[record]]
input_sequence = "AKGMKYLASKK [MET_Y1194]"
parameter_measured = "phosphorylation enrichment"
assay_result = 0.394

[[record]]
input_sequence = "EKMWSYTKSAE [GRIA3_Y705_M706T]"
parameter_measured = "phosphorylation enrichment"
assay_result = 0.451

[[record]]
input_sequence = "YASALYRQRRS [FGF11_Y162]"
parameter_measured = "phosphorylation enrichment"
assay_result = 0.548

[[record]]
input_sequence = "YLEKYYKFGCR [NNMT_Y25_S29C]"
parameter_measured = "phosphorylation enrichment"
assay_result = 0.564

[[record]]
input_sequence = "ASYGPYTRVQS [FOXL2_Y258]"
parameter_measured = "phosphorylation enrichment"
assay_result = 0.793

[[record]]
input_sequence = "FAKSVYWENTL [NUP107_Y296_YF]"
parameter_measured = "phosphorylation enrichment"
assay_result = 0.857

[[record]]
input_sequence = "SYMVRYNQPRV [GRIN2D_Y736]"
parameter_measured = "phosphorylation enrichment"
assay_result = 0.385

[[record]]
input_sequence = "LTQRTYMLENA [GPAA1_Y49_S51L]"
parameter_measured = "phosphorylation enrichment"
assay_result = 0.547

[[record]]
input_sequence = "LREKVYASLEA [RXRA_Y397]"
parameter_measured = "phosphorylation enrichment"
assay_result = 2.9

[[record]]
input_sequence = "ILLAGCLVMVI [SLC28A3_Y113_Y113C]"
parameter_measured = "phosphorylation enrichment"
assay_result = 0.51

[[record]]
input_sequence = "GLRSFYETSKM [MAGED2_Y449_YF]"
parameter_measured = "phosphorylation enrichment"
assay_result = 0.506

[[record]]
input_sequence = "STQAHYRLSAF [ADAMTS9_Y100_S96T]"
parameter_measured = "phosphorylation enrichment"
assay_result = 0.456

